Numbers sourced from patent US20240010722A1.

Target: Insulin
Sequence (P01308 25-54, chain 1 of 2): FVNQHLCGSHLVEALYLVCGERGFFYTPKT
Sequence (P01308 90-110, chain 2 of 2): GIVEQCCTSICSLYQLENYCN
Test: polyreactivity ELISA on insulin coat, 100 nM
Experimental: Non-specific DNA and Insulin binding is predictive of poor pharmacokinetics (PK). An immunosorbent plate was coated with dsDNA at a concentration of 1 μg/mL or Insulin at 5 μg/mL in PBS pH 7.4, 75 ul/well, and incubated overnight at 4° C. Wells were washed with PBS pH 7.4 containing 0.05% Tween-20 (wash buffer) three times, and then blocked with 200 ul/well 1% BSA in PBS pH 7.4 (block buffer) for two hours at room temperature. […] OD 450 nm was measured. […]
The entries below are paired with their reported Insulin polyreactivity score.

[Q] Identify measured Insulin polyreactivity score associated with MIAB137 (antibody, V domains shown, tested with human Fc) VH: EVQLLESGGGLVQPGGSLRLSCAASGFTFSDFWMHWVRQAPGKGLEWVSAISGSGGSTYYADSVKGRFTISRDNSKNTLYLQMNSLRAEDTAVYYCARDRPYYYYMDVWGKGTTVTVSS VL: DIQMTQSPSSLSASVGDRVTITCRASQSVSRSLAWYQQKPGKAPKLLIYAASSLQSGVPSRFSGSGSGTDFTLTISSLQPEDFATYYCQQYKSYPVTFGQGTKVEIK
[A] 67.3

[Q] Respond only with Insulin polyreactivity score recorded for MIAB133 (antibody, V domains shown, tested with human Fc; also called MIAB133-001) VH: EVQLLESGGGLVQPGGSLRLSCAASGFTFSSFWMHWVRQAPGKGLEWISYISGDSGYTNYADSVKGRFTISRDNSKNTLYLQMNSLRAEDTAVYYCARDRPYYYYMDVWGKGTTVTVSS VL: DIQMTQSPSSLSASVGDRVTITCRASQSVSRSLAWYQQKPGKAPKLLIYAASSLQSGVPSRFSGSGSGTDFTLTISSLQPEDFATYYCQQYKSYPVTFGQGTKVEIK
[A] 13.2

[Q] Look up Insulin polyreactivity score of MIAB136 (antibody, V domains shown, tested with human Fc) VH: EVQLLESGGGLVQPGGSLRLSCAASGFTFSSYAMSWVRQAPGKGLEWISYISGDSGYTNYADSVKGRFTISRDNSKNTLYLQMNSLRAEDTAVYYCARDRPYYYYMDVWGKGTTVTVSS VL: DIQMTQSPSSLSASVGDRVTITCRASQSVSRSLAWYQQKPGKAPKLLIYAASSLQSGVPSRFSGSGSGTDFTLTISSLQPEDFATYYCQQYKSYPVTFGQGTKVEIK and report it.
[A] 75.4

[Q] Tell me measured Insulin polyreactivity score for MIAB147 (antibody, V domains shown, tested with human Fc; also called MIAB147-001) VH: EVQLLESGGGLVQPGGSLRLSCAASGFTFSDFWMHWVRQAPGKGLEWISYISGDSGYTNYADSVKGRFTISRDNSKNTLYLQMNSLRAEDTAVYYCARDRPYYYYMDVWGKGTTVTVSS VL: DIQMTQSPSSLSASVGDRVTITCRASQSVSRYLAWYQQKPGKAPKLLIYAASSLQSGVPSRFSGSGSGTDFTLTISSLQPEDFATYYCQQYKSYPVTFGQGTKVEIK please.
[A] 3.81

[Q] For the binder MIAB148 (antibody, V domains shown, tested with human Fc) VH: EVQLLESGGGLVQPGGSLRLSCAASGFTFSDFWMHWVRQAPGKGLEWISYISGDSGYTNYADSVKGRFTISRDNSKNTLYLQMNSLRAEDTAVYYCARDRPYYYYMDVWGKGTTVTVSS VL: DIQMTQSPSSLSASVGDRVTITCRASQSVSRSLNWYQQKPGKAPKLLIYAASSLQSGVPSRFSGSGSGTDFTLTISSLQPEDFATYYCQQYKSYPVTFGQGTKVEIK , give its reported Insulin polyreactivity score.
[A] 3.63
